Origin of values: a melting point compilation (Tetko et al.)

assayMetric: melting point

- compound: "COc1ccccc1-n1ncc2c(=O)[nH]cnc21"
  val: "270 to 271 °C"
- compound: "CC(C)(C)[C@H](N)CO"
  val: "30 to 34 °C"
- compound: "NC(=NO)c1ccc2ccccc2c1"
  val: "150 to 151 °C"
- compound: "N#C/C(=N\\Nc1cc(Cl)ccc1Cl)c1nc2ccccc2[nH]1"
  val: "300 to 302 °C"
- compound: "O=Cc1cc(O)ccc1I"
  val: "125 to 126 °C"
- compound: "CCOC(=O)C(C#N)=Cc1ccc(-c2ccccc2OC)o1"
  val: "120 to 121 °C"
- compound: "Cn1c(S)nnc1-c1ccc(Cl)cc1Cl"
  val: "175 to 177 °C"
- compound: "COc1ccc2c(c1)CC1(CCC(c3ccc(C(C)(C)C)cc3)CC1)C2=O (stereo not given)"
  val: "166 to 167 °C"
- compound: "Cc1ccc(COc2ccc(CC#N)cc2)cc1"
  val: "121 to 123 °C"
- compound: "CCc1nc(N)nc(O)c1C"
  val: "303 to 304 °C"
- compound: "O=C(NCO)NS(=O)(=O)c1ccc(NC(=O)c2ccccc2C(=O)O)cc1"
  val: "162 °C"
- compound: "Cc1ccc(OP(=O)(Oc2ccc(C)c(C)c2)Oc2ccc(C)c(C)c2)cc1C"
  val: "72 °C"
- compound: "COc1cccc(-c2cccc(OC)c2)c1"
  val: "36 °C"
- compound: "Cc1cccc(N/N=C2/C(=O)N(c3ccccc3)N=C2C(F)(F)F)c1C"
  val: "136 °C"
- compound: "CC(=O)OC1CC2C(C)C(=O)C3(C4CC5C(C)(C)CCC(OC(C)=O)C5(C(OC(C)=O)O4)C13)C2OC(C)=O (stereo not given)"
  val: "265 °C"
- compound: "Nc1ccc(Br)c(Cl)c1"
  val: "74 °C"
- compound: "COc1ccc(CCl)cc1"
  val: "24.5 °C"
- compound: "CC(C)Cc1ccc(C(=O)C(C)Cl)cc1 (stereo not given)"
  val: "52 to 54 °C"
- compound: "O=[N+]([O-])c1ccc(C=NO)o1"
  val: "163 °C"
- compound: "Clc1ccc(CC(=CCN2CCCC2)c2ccccc2)cc1"
  val: "48.5 °C"

---

Reported melting point values for the following compounds.

- compound: "CCC1Oc2ccccc2C(=O)NC1=O (stereo not drawn)"
  melting point: "162 to 164 °C"
- compound: "Cn1nnc2cc(C(=O)Cl)ccc21"
  melting point: "125 to 126 °C"
- compound: "O=C(O)c1ccc(O)cc1C(=O)O"
  melting point: "191 to 194 °C"
- compound: "Cc1cc2nsnc2cc1Cl"
  melting point: "85 to 86 °C"
- compound: "CCCOC1CCC2(C)C(CCC3C2CCC2(C)C(OCCC)CCC32)C1 (stereo not drawn)"
  melting point: "112 to 135 °C"
- compound: "OCc1cccnc1N1CCOCC1"
  melting point: "80 to 83 °C"
- compound: "NCc1ccc(-c2nccs2)cc1"
  melting point: "39 to 42 °C"
- compound: "CCOC(=O)C1=C(N)CCCC1"
  melting point: "70 to 74 °C"
- compound: "Cc1nc(-c2ccccc2)c(C(=O)O)s1"
  melting point: "201 to 203 °C"
- compound: "ICCCCCCCCI"
  melting point: "16 to 21 °C"
- compound: "CC(C)NC(=O)CC#N"
  melting point: "62 to 65 °C"
- compound: "CCCCOc1cc(C(=O)O)ccc1OC"
  melting point: "142 to 144 °C"
- compound: "CN(C)CC(O)Cn1c2ccc(Br)cc2c2cc(Br)ccc21 (stereo not drawn)"
  melting point: "153 to 154 °C"
- compound: "ON=CC=Cc1ccccc1"
  melting point: "115 to 125 °C"
- compound: "Cc1nc(-c2cccc(C#N)c2)cs1"
  melting point: "112 to 114 °C"
- compound: "Cc1cc(Cl)cc2c(O)c(C(=O)O)cnc12"
  melting point: "303 to 308 °C"
- compound: "COC(=O)c1cc2occc2[nH]1"
  melting point: "139 to 140 °C"
- compound: "Cc1onc(-c2ccccc2)c1N=C=O"
  melting point: "39 to 40 °C"

---

Reported melting point values for the following compounds.
assayMetric: melting point

- compound: "O=[N+]([O-])c1ccc2c(c1)OCCOCCOc1ccccc1OCCOCCO2"
  assayMetric: "melting point"
  val: "190 to 195 °C"
- compound: "Ic1ccccc1Cn1cncn1"
  assayMetric: "melting point"
  val: "67 to 69 °C"
- compound: "O=C(O)CCCCCCCCCCCCCCCCCCCCC(=O)O"
  assayMetric: "melting point"
  val: "125 to 127 °C"
- compound: "NC1=NN(c2ccccc2)C(=O)C1"
  assayMetric: "melting point"
  val: "210 to 215 °C"
- compound: "COC(=O)c1ccc(C(=O)O)nc1"
  assayMetric: "melting point"
  val: "187 to 190 °C"
- compound: "CCOC(=O)CNc1nc(N)n[nH]1"
  assayMetric: "melting point"
  val: "177 to 179 °C"
- compound: "O=C1c2ccccc2C(=O)N1c1nc2ccccc2[nH]1"
  assayMetric: "melting point"
  val: "272 to 275 °C"
- compound: "O=C(Cl)c1cc(-c2ccc(Cl)cc2)oc1C(F)(F)F"
  assayMetric: "melting point"
  val: "135 to 137 °C"
- compound: "O=C1c2ccccc2C(=O)C1(Br)c1ccccc1"
  assayMetric: "melting point"
  val: "106 to 107 °C"
- compound: "COc1cc(F)c(F)cc1CBr"
  assayMetric: "melting point"
  val: "42 °C"
- compound: "Brc1cccc(Br)c1"
  assayMetric: "melting point"
  val: "-7 °C"
- compound: "Cc1cc2nnc(C(=O)O)c(C)n2n1"
  assayMetric: "melting point"
  val: "166 to 168 °C"
- compound: "Cc1cc(N=Nc2ccccc2C)ccc1N"
  assayMetric: "melting point"
  val: "101 to 102 °C"
- compound: "CC1C(C(=O)NN)C1C(=O)NN (stereo not given)"
  assayMetric: "melting point"
  val: "242 to 245 °C"
- compound: "OCc1cc(C(F)(F)F)ccc1N1CCOCC1"
  assayMetric: "melting point"
  val: "83 to 84 °C"

---

Reported melting point values for the following molecules.
assayMetric: melting point (°C)

- molecule: "Brc1ccc(Oc2ccc(Br)c(Br)c2Br)c(Br)c1Br"
  unitsOfMeasure: "°C"
  val: 183
- molecule: "O=C1CCC(=O)N1I"
  unitsOfMeasure: "°C"
  val: 204
- molecule: "Cc1ccc(O[C@H]2CC[C@@]3(C)C(=CC[C@H]4[C@@H]5CC[C@H]([C@H](C)CCCC(C)C)[C@@]5(C)CC[C@@H]43)C2)cc1"
  unitsOfMeasure: "°C"
  val: 148
- molecule: "CNc1ccc2cc(OC)[nH]c2c1"
  unitsOfMeasure: "°C"
  val: 165
- molecule: "CCCCCCCCCCCC[N+]1=C(C=Cc2cc([N+](=O)[O-])cc([N+](=O)[O-])c2[O-])C(C)(C)c2ccccc21"
  unitsOfMeasure: "°C"
  val: 138
- molecule: "O=[N+]([O-])c1ccc(NS(=O)(=O)c2ccc(Cl)c(C(F)(F)F)c2)c(Cl)c1"
  unitsOfMeasure: "°C"
  val: 170
- molecule: "CC1CCC(C(C)C)C(OC(=O)C#Cc2ccccc2)C1 (configuration not stated)"
  unitsOfMeasure: "°C"
  val: 64
- molecule: "CN1CCN(C(c2ccccc2)c2ccccc2)CC1"
  unitsOfMeasure: "°C"
  val: 106
- molecule: "O=C1CCC(=O)N1c1nnc(C(F)(F)F)s1"
  unitsOfMeasure: "°C"
  val: 221
- molecule: "CCCCCCCCC1CCCC1"
  unitsOfMeasure: "°C"
  val: -44
- molecule: "O=C1c2ccccc2C(=O)N1c1ccc(Cl)cc1"
  unitsOfMeasure: "°C"
  val: 197
- molecule: "Cc1c(Cl)ccc(O)c1Cl"
  unitsOfMeasure: "°C"
  val: 58
- molecule: "N#C/C(=N\\Nc1ccc(Cl)cc1Cl)c1nc(-c2ccc(Cl)cc2)cs1"
  unitsOfMeasure: "°C"
  val: 246
- molecule: "COC(=O)C1=C(C(=O)OC)C2(COC(=O)C(C)NC(C)=O)c3ccccc3C1c1ccccc12 (configuration not stated)"
  unitsOfMeasure: "°C"
  val: 180
- molecule: "CCCC(O)C(CC)CO (configuration not stated)"
  unitsOfMeasure: "°C"
  val: -40
- molecule: "CCC(C)(CC)OC(N)=O"
  unitsOfMeasure: "°C"
  val: 56
- molecule: "CC(C=CC1(O)C(C)=CC(=O)CC1(C)C)=CC(=O)O (configuration not stated)"
  unitsOfMeasure: "°C"
  val: 160
- molecule: "COC1=C(OC)C(C(O)CBr)OC1=O (configuration not stated)"
  unitsOfMeasure: "°C"
  val: 96
- molecule: "Cc1ccccc1P(c1ccccc1)c1ccccc1"
  unitsOfMeasure: "°C"
  val: 72
- molecule: "COc1c(Cl)c(Cl)c(Cl)c(Cl)c1Cl"
  unitsOfMeasure: "°C"
  val: 108
